Target: MNK1 (Homo sapiens)
Experiment: MNK1 kinase inhibition assay (LANCE Ultra kinase activity assay, PerkinElmer)
Format: biochemical
Settings: inhibition rate at 1000 nM compound; 450 μM ATP, 60 min, 25° C.; read-out: Inhibitory activity(1 μM) MNK1
# inhibition at 1 µM values compiled below

// known answers, use as guide
{"molecule": "CN1CCN(C(=O)c2ccc(-c3nn4c(-c5ccc(C(F)(F)F)nc5)cnc4s3)cc2)CC1 [Compound 29]", "inhibition at 1 µM": "25 to 50%"}
{"molecule": "O=C(c1ccc(-c2nn3c(-c4ccc(F)c(F)c4)cnc3s2)cc1)N1CCOCC1 [Compound 11]", "inhibition at 1 µM": "> 75%"}
{"molecule": "N#Cc1ccc(-c2cnc3sc(-c4ccc(C(=O)NCCCN5CCOCC5)cc4)nn23)cc1 [Compound 37]", "inhibition at 1 µM": "> 75%"}

// next entry
Record N#Cc1ccc(-c2cnc3sc(-c4ccc(C(=O)SCCO)cc4)nn23)cc1 [Compound 35] , field inhibition at 1 µM: 25 to 50%

----------
Target: MNK2 (Homo sapiens, UniProt Q9HBH9)
Sequence (Q9HBH9 whole entry): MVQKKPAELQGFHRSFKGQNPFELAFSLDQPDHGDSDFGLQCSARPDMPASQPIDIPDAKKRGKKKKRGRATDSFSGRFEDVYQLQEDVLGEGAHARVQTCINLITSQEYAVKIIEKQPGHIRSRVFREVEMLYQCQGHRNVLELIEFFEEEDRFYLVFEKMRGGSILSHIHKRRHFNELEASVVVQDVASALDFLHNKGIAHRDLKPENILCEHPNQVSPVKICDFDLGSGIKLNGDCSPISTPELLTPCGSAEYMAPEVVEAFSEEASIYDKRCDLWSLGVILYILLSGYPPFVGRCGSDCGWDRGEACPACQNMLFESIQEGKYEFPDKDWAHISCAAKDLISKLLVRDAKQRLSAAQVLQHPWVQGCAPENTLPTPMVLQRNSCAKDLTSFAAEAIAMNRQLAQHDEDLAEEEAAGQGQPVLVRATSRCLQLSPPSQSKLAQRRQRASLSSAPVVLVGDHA
Assay: MNK2 kinase inhibition assay (LANCE Ultra kinase activity assay, PerkinElmer)
Type: biochemical
Conditions: inhibition rate at 1000 nM compound; 100 μM ATP, 60 min, 25° C.; read-out: Inhibitory activity(1 μM) MNK2
value_type: inhibition at 1 µM

MNK2 (Homo sapiens, UniProt Q9HBH9) data for `N#Cc1ccc(-c2cnc3sc(-c4ccc(C(=O)N5CCOCC5)cc4)nn23)cc1` ; its inhibition at 1 µM: > 75%

----------
Target: UniProt Q9HBH9
Entries and their measured IC50 follow.

Example cases with answers are listed next.
{"compound": "O=C(c1ccc(-c2nn3c(-c4ccc(O)c(F)c4)cnc3s2)cc1)N1CCOCC1 [Compound 10]", "value_type": "IC50", "value_measured": "< 0.05 µM"}
{"compound": "CN(C)C1CCN(C(=O)c2ccc(-c3nn4c(-c5ccc(F)cc5)cnc4s3)cc2)CC1 [Compound 13]", "value_type": "IC50", "value_measured": "< 0.05 µM"}
{"compound": "CN1CCN(C(=O)c2ccc(-c3nn4c(-c5ccc(Cl)cc5)cnc4s3)cc2)CC1 [Compound 22]", "value_type": "IC50", "value_measured": "< 0.05 µM"}
{"compound": "N#Cc1ccc(-c2cnc3sc(-c4ccc(C(=O)NCCCN5CCOCC5)cc4)nn23)cc1 [Compound 37]", "value_type": "IC50", "value_measured": "< 0.05 µM"}

Record summary for CN1CCN(C(=O)c2ccc(-c3nn4c(-c5ccc([N+](=O)[O-])cc5)cnc4s3)cc2)CC1 [Compound 25] : reported IC50 = < 0.05 µM

----------
Catalogue of compounds with associated inhibition at 1 µM
Molecular target: MNK2 (Homo sapiens, UniProt Q9HBH9)
Experiment: MNK2 kinase inhibition assay (LANCE Ultra kinase activity assay, PerkinElmer)
Type: biochemical
Conditions: inhibition rate at 1000 nM compound; 100 μM ATP, 60 min, 25° C.; read-out: Inhibitory activity(1 μM) MNK2

{"molecular_string": "O=C(c1ccc(-c2cn3c(-c4ccc(F)cc4)csc3n2)cc1)N1CCC(N2CCOCC2)CC1", "tgt": "MNK2 (Homo sapiens, UniProt Q9HBH9)", "inhibition at 1 µM": "25 to 50%"}
{"molecular_string": "N#Cc1ccc(-c2cnc3sc(-c4ccc(C(=O)NCCN5CCCC5)cc4)nn23)cc1", "tgt": "MNK2 (Homo sapiens, UniProt Q9HBH9)", "inhibition at 1 µM": "> 75%"}
{"molecular_string": "O=C(c1ccc(-c2nn3c(-c4ccc(F)cc4)cnc3s2)cc1)N1CCOCC1", "tgt": "MNK2 (Homo sapiens, UniProt Q9HBH9)", "inhibition at 1 µM": "> 75%"}

Given item `CN(C)C1CCN(C(=O)c2ccc(-c3cn4c(-c5ccc(C(F)(F)F)cc5)csc4n3)cc2)CC1` , the value recorded as its inhibition at 1 µM is 25 to 50%

----------
Entries below carry reported IC50 on MNK2 (Homo sapiens).

{"molecular_string": "N#Cc1ccc(-c2cnc3sc(-c4ccc(C(=O)NCCCCCO)cc4)nn23)cc1", "IC50": "< 50 nM"}
{"molecular_string": "CN(C)C1CCN(C(=O)c2ccc(-c3nn4c(-c5ccc(C(F)(F)F)cc5)cnc4s3)cc2)CC1", "IC50": "< 50 nM"}
{"molecular_string": "CN(C)C1CCN(C(=O)c2ccc(-c3nn4c(-c5ccc(C#N)cc5)cnc4s3)cc2)CC1", "IC50": "< 50 nM"}

Reported IC50 for `CN1CCN(C(=O)c2ccc(-c3nn4c(-c5ccc(C(F)(F)F)cc5)cnc4s3)cc2)CC1` was < 50 nM

GET /value?item= `N#Cc1ccc(-c2cnc3sc(-c4ccc(C(=O)NCCO)cc4)nn23)cc1` &field=IC50 returns < 50 nM

Value of IC50 reported for the molecule `N#Cc1ccc(-c2cnc3sc(-c4ccc(C(=O)NCCN5CCCC5)cc4)nn23)cc1` is < 50 nM

Short answer for `COC(=O)c1ccc(-c2cnc3sc(-c4ccc(C(=O)N5CCN(C)CC5)cc4)nn23)cc1` : IC50 was 50 to 200 nM

Form field IC50, entry `O=C(c1ccc(-c2nn3c(-c4ccc(C(F)(F)F)cc4)cnc3s2)cc1)N1CCOCC1` : 50 to 200 nM

----------
Target: MNK1 (Homo sapiens, UniProt Q9BUB5)
Sequence (Q9BUB5 whole entry): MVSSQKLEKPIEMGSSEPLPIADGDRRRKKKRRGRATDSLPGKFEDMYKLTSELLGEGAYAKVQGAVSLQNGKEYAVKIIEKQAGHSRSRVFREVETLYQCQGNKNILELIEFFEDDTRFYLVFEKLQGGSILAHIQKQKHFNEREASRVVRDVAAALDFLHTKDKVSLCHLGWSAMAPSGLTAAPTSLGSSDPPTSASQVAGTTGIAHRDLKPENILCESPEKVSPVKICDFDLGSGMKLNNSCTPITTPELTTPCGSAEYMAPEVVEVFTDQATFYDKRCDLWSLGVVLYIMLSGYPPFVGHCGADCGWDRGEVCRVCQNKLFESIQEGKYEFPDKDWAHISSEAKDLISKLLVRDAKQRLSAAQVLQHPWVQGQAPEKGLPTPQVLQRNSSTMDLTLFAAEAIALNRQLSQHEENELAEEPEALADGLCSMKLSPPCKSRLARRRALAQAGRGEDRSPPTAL
Assay: MNK1 kinase inhibition assay (LANCE Ultra kinase activity assay, PerkinElmer)
Assay type: biochemical
Settings: inhibition rate at 1000 nM compound; 450 μM ATP, 60 min, 25° C.; read-out: Inhibitory activity(1 μM) MNK1
value_type: inhibition at 1 µM

Would you please look over these solved cases?
{"molecule": "O=C(c1ccc(-c2cn3c(-c4ccc(Cl)cc4)csc3n2)cc1)N1CCOCC1", "value_type": "inhibition at 1 µM", "value_measured": "25 to 50%"}
{"molecule": "COC(=O)c1ccc(-c2cnc3sc(-c4ccc(C(=O)N5CCN(C)CC5)cc4)nn23)cc1", "value_type": "inhibition at 1 µM", "value_measured": "> 75%"}
{"molecule": "COc1ccc(-c2csc3nc(-c4ccc(C(=O)N5CCOCC5)cc4)cn23)cc1", "value_type": "inhibition at 1 µM", "value_measured": "25 to 50%"}

Known value: MNK1 (Homo sapiens, UniProt Q9BUB5) inhibition at 1 µM of the molecule `CN1CCN(C(=O)c2ccc(-c3nn4c(-c5ccc(Cl)cc5)cnc4s3)cc2)CC1` equals > 75%

Fill in: MNK1 (Homo sapiens, UniProt Q9BUB5) inhibition at 1 µM for CC1CCCCN1C(=O)c1ccc(-c2nn3c(-c4ccc(C#N)cc4)cnc3s2)cc1 (centres unmarked) = > 75%

`CN1CCN(C(=O)c2ccc(-c3nn4c(-c5ccc(C(F)(F)F)c(F)c5)cnc4s3)cc2)CC1` tested on MNK1 (Homo sapiens, UniProt Q9BUB5) gave inhibition at 1 µM: > 75%

Form field inhibition at 1 µM for item `CN1CCN(C(=O)c2ccc(-c3nn4c(-c5ccc([N+](=O)[O-])cc5)cnc4s3)cc2)CC1` on MNK1 (Homo sapiens, UniProt Q9BUB5): > 75%

Summary: `CN(C)C1CCN(C(=O)c2ccc(-c3nn4c(-c5ccc(C(F)(F)F)cc5)cnc4s3)cc2)CC1` , MNK1 (Homo sapiens, UniProt Q9BUB5), inhibition at 1 µM = > 75%

----------
Molecular target: MNK1 (Homo sapiens, UniProt Q9BUB5)
value_type: IC50

Consider the worked cases shown below.
{"molecular_string": "N#Cc1ccc(-c2cnc3sc(-c4ccc(C(=O)N5CCCC5)cc4)nn23)cc1", "tgt": "MNK1 (Homo sapiens, UniProt Q9BUB5)", "IC50": "< 50 nM"}
{"molecular_string": "CN1CCN(C(=O)c2ccc(-c3nn4c(-c5ccc([N+](=O)[O-])cc5)cnc4s3)cc2)CC1", "tgt": "MNK1 (Homo sapiens, UniProt Q9BUB5)", "IC50": "< 50 nM"}
{"molecular_string": "CN1CCN(C(=O)c2ccc(-c3nn4c(-c5ccc(C#N)cc5)cnc4s3)cc2)CC1", "tgt": "MNK1 (Homo sapiens, UniProt Q9BUB5)", "IC50": "< 50 nM"}
{"molecular_string": "CN1CCN(C(=O)c2ccc(-c3nn4c(-c5ccc(F)nc5)cnc4s3)cc2)CC1", "tgt": "MNK1 (Homo sapiens, UniProt Q9BUB5)", "IC50": "800 to 1500 nM"}
{"molecular_string": "CN1CCN(C(=O)c2ccc(-c3nn4c(-c5ccncc5)cnc4s3)cc2)CC1", "tgt": "MNK1 (Homo sapiens, UniProt Q9BUB5)", "IC50": "200 to 800 nM"}

Recorded result, `CN(C)C1CCN(C(=O)c2ccc(-c3nn4c(-c5ccc(C#N)cc5)cnc4s3)cc2)CC1` , IC50: < 50 nM

The measured IC50 associated with `O=C(c1ccc(-c2nn3c(-c4ccc(O)c(F)c4)cnc3s2)cc1)N1CCOCC1` reads 50 to 200 nM

IC50 for `N#Cc1ccc(-c2cnc3sc(-c4ccc(C(=O)NCCCO)cc4)nn23)cc1` is < 50 nM
